Target: Mer (Homo sapiens, UniProt Q12866)
Construct: purchased Life Technologies
Sequence (Q12866 21-999): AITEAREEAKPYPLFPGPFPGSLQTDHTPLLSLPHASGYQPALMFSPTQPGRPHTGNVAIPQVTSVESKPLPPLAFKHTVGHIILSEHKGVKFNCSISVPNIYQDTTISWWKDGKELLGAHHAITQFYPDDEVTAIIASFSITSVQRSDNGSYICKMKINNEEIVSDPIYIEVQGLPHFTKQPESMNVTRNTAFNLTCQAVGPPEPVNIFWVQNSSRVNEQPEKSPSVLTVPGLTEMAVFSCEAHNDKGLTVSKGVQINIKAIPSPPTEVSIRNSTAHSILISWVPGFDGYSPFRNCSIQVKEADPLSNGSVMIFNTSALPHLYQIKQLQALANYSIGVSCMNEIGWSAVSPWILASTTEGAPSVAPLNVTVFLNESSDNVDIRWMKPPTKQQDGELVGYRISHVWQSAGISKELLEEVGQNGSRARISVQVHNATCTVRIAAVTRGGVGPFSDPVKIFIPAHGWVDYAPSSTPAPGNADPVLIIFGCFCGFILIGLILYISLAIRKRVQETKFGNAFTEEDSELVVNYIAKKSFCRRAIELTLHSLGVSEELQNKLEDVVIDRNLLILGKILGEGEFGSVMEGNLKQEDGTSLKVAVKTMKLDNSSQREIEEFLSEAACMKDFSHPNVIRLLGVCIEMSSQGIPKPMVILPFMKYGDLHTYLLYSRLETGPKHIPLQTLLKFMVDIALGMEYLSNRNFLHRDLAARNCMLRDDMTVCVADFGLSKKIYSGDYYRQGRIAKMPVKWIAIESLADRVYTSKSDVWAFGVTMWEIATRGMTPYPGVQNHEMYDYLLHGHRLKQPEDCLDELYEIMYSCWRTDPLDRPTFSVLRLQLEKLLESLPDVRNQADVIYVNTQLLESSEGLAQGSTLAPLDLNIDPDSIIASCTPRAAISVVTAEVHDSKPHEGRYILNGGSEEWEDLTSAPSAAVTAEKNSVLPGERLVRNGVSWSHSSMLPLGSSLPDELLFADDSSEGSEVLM
Test: LanthaScreen Eu kinase binding assay for Mer
Conditions: read-out: Mer kinase binding activity (Kd)
pKd: −log10 of the molar value.
Attribute: pKd
attribute.measured: pKd

>>> reported("COc1cc2nccc(Oc3ccc(NC(=O)c4nn(CC(C)C)cc4OCC(F)(F)F)nc3)c2cc1OC")
"> 7.00"
>>> reported("COc1cc2nccc(Oc3ccc(NC(=O)c4nn(CC5CNC5)cc4OCC(F)(F)F)nc3)c2cc1OC")
"6.30 to 7.00"
>>> reported("COc1cc2nccc(Oc3ccc(NC(=O)c4nn(CC(C)O)cc4OCC4CN(C)C4)nc3)c2cc1OC (stereo not drawn)")
"≤ 6.30"
>>> reported("COc1cc2nccc(Oc3ccc(NC(=O)c4nn(CC5COC5)cc4OCC(F)(F)F)cc3C)c2cc1OC")
"> 7.00"
>>> reported("COc1cc2nccc(Oc3ccc(NC(=O)c4nc(CCC(F)(F)F)oc4CCC4CCC4)nc3)c2cc1OC")
"6.30 to 7.00"
>>> reported("COc1cc2nccc(Oc3ccc(NC(=O)c4nn(C5CCOC5)cc4OCC(F)(F)F)cn3)c2cc1OC (stereo not drawn)")
"> 7.00"

====

Molecular target: CSF1R (Homo sapiens)
Assay: Cellular CSF1R inhibition ELISA (p-CSF1R, M-CSF-induced) using THP-1 cells
pIC50: −log10 of the molar value.
attribute.measured: pIC50

>>> reported("CCCn1cc(OCC(F)(F)F)c(C(=O)Nc2ccc(Oc3ccnc4cc(OC)c(OC)cc34)c(F)c2)n1")
"6.00 to 6.30"
>>> reported("COc1cc2nccc(Oc3ccc(NC(=O)c4nn(C5CC5)cc4OCC(F)(F)F)nc3)c2cc1OC")
"> 6.30"
>>> reported("COCCn1cc(OCC(F)(F)F)c(C(=O)Nc2ccc(Oc3ccnc4cc(OC)c(OC)cc34)cc2)n1")
"≤ 6.00"
>>> reported("CCCn1cc(OCC(F)(F)F)c(C(=O)Nc2ccc(Oc3ccnc4cc(OC)c(OC)cc34)c(C(F)(F)F)c2)n1")
"≤ 6.00"
>>> reported("COc1cc2nccc(Oc3ccc(NC(=O)c4nn(CCC#N)cc4OCC(F)(F)F)nc3)c2cc1OC")
"> 6.30"
>>> reported("COc1cc2nccc(Oc3ccc(NC(=O)c4nn(CC5COC5)cc4OCC(F)(F)F)cn3)c2cc1OC")
"≤ 6.00"
>>> reported("COc1cc2nccc(Oc3ccc(NC(=O)c4nn(C5CC5)cc4OCC(F)(F)F)nn3)c2cc1OC")
"6.00 to 6.30"
>>> reported("COc1cc2nccc(Oc3ccc(NC(=O)c4nn(CCN)cc4OCC(F)(F)F)cc3)c2cc1OC")
"≤ 6.00"
>>> reported("CCC(=O)n1cc(OCC(F)(F)F)c(C(=O)Nc2ccc(Oc3ccnc4cc(OC)c(OC)cc34)cn2)n1")
"> 6.30"
>>> reported("COc1cc2nccc(Oc3ccc(NC(=O)c4nn(CCN)cc4OCC(F)(F)F)c(F)c3)c2cc1OC")
"≤ 6.00"
>>> reported("COc1cc2nccc(Oc3ccc(NC(=O)c4nn(CCCN)cc4OCC(F)(F)F)nc3)c2cc1OC")
"> 6.30"
>>> reported("CCn1cc(OC(C)C)c(C(=O)Nc2ccc(Oc3ccnc4cc(OC)c(OC)cc34)cn2)n1")
"> 6.30"
>>> reported("COc1cc2nccc(Oc3ccc(NC(=O)c4nn(C5CC5)cc4NCC(F)(F)F)nc3)c2cc1OC")
"> 6.30"
>>> reported("COc1cc2nccc(Oc3ccc(NC(=O)c4nn(CC5CCOC5)cc4OCC(F)(F)F)nc3)c2cc1OC (centres unmarked)")
"> 6.30"
>>> reported("COc1cc2nccc(Oc3ccc(NC(=O)c4nn(CC(C)O)cc4OCC(F)(F)F)cn3)c2cc1OC (centres unmarked)")
"≤ 6.00"
>>> reported("CCCn1cc(OCC2COC2)c(C(=O)Nc2ccc(Oc3ccnc4cc(OC)c(OC)cc34)cn2)n1")
"> 6.30"
>>> reported("CCn1nc(C(=O)Nc2ccc(Oc3ccnc4cc(OC)c(OC)cc34)cn2)c(OCC(F)(F)F)c1C")
"> 6.30"

====

Target: CSF1R (Homo sapiens, UniProt P07333)
Sequence (P07333 20-972): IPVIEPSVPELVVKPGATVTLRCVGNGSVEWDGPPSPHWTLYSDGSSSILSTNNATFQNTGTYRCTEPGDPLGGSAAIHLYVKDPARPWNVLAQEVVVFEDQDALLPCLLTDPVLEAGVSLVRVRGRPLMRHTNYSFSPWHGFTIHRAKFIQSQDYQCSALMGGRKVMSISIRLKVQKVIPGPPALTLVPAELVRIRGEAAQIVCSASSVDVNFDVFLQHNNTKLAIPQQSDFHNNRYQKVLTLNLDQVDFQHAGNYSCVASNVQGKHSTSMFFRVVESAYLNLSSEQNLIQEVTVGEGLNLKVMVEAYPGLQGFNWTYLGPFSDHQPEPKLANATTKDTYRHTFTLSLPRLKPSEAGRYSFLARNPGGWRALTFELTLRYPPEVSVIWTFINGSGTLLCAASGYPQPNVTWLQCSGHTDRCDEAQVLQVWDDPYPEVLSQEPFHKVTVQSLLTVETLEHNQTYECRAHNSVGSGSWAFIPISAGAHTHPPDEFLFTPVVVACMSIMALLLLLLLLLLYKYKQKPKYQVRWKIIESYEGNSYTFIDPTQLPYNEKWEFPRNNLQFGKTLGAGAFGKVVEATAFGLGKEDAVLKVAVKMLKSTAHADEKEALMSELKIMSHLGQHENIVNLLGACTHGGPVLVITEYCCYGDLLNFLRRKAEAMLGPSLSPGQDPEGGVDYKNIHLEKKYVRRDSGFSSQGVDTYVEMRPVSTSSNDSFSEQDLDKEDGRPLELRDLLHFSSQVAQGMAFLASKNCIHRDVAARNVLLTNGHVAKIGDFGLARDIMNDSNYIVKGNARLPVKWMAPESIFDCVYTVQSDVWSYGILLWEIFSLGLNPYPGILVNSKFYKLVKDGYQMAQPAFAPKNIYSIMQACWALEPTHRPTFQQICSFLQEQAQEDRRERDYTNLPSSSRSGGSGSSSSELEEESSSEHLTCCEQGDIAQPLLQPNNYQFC
Assay: Cellular CSF1R inhibition ELISA (p-CSF1R, M-CSF-induced) using THP-1 cells
Recorded IC50 values for a group of compounds are listed next.
attribute.measured: IC50

>>> reported("COc1cc2nccc(Oc3ccc(NC(=O)c4nn(CCN)cc4OCC(F)(F)F)nn3)c2cc1OC [Compound 125]")
"≥ 1000 nM"
>>> reported("COc1cc2nccc(Oc3ccc(NC(=O)c4nn(CC(C)C)cc4OCC(F)(F)F)cc3F)c2cc1OC [Compound 53]")
"500 to 1000 nM"
>>> reported("CCCn1cc(OCCNC)c(C(=O)Nc2ccc(Oc3ccnc4cc(OC)c(OC)cc34)cn2)n1 [Compound 140]")
"≥ 1000 nM"
>>> reported("CCCn1cc(OCCF)c(C(=O)Nc2ccc(Oc3ccnc4cc(OC)c(OC)cc34)cn2)n1 [Compound 14]")
"< 500 nM"
>>> reported("COc1cc2nccc(Oc3ccc(NC(=O)c4nn(C5CC5)cc4OCC(F)F)nn3)c2cc1OC [Compound 162]")
"< 500 nM"
>>> reported("CCCn1cc(OCC2CNC2)c(C(=O)Nc2ccc(Oc3ccnc4cc(OC)c(OC)cc34)cn2)n1 [Compound 159]")
"≥ 1000 nM"
>>> reported("COc1cc2nccc(Oc3ccc(NC(=O)c4nn(CCOC5CC5)cc4OCC(F)(F)F)nc3)c2cc1OC [Compound 153]")
"< 500 nM"
>>> reported("COc1cc2nccc(Oc3ccc(NC(=O)c4nn(C5CC5)cc4NCC(F)(F)F)nn3)c2cc1OC [Compound 148]")
"≥ 1000 nM"
>>> reported("COc1cc2nccc(Oc3ccc(NC(=O)c4nn(CC(C)O)cc4OCC(F)(F)F)cc3C)c2cc1OC (centres unmarked) [Compound 83]")
"< 500 nM"
>>> reported("COc1cc2nccc(Oc3ccc(NC(=O)c4nn(C5CC5)cc4OCC4CNC4)nn3)c2cc1OC [Compound 172]")
"≥ 1000 nM"
>>> reported("COc1cc2nccc(Oc3ccc(NC(=O)c4nn(CC(C)C)cc4OCC(F)(F)F)cc3C)c2cc1OC [Compound 58]")
"≥ 1000 nM"
>>> reported("COc1cc2nccc(Oc3ccc(NC(=O)c4nn(C5CCCC5)cc4OCC(F)(F)F)c(F)c3)c2cc1OC [Compound 47]")
"500 to 1000 nM"
>>> reported("COc1cc2nccc(Oc3ccc(NC(=O)c4nn(C5CC5)cc4OCC(F)F)nc3)c2cc1OC [Compound 109]")
"< 500 nM"
>>> reported("CCCn1cc(OCC(F)F)c(C(=O)Nc2ccc(Oc3ccnc4cc(OC)c(OC)cc34)cn2)n1 [Compound 12]")
"< 500 nM"
>>> reported("COc1cc2nccc(Oc3ccc(NC(=O)c4nn(C5CCOC5)cc4OCC(F)(F)F)nc3)c2cc1OC (centres unmarked) [Compound 13]")
"< 500 nM"
>>> reported("COc1cc2nccc(Oc3ccc(NC(=O)c4cc(C5CC5)cnc4OCC(F)(F)F)nc3)c2cc1OC [Compound 178]")
"< 500 nM"
>>> reported("COc1cc2nccc(Oc3ccc(NC(=O)c4nn(CC5COC5)cc4OCC(F)(F)F)cc3)c2cc1OC [Compound 101]")
"≥ 1000 nM"
>>> reported("COc1cc2nccc(Oc3ccc(NC(=O)c4nn(CC(C)O)cc4OCC(F)(F)F)nc3)c2cc1OC (centres unmarked) [Compound 17]")
"< 500 nM"
>>> reported("COc1cc2nccc(Oc3ccc(NC(=O)c4nn(CC5COC5)cc4OCC(F)(F)F)nn3)c2cc1OC [Compound 123]")
"≥ 1000 nM"
>>> reported("COc1cc2nccc(Oc3ccc(NC(=O)c4nn(CCCO)cc4OCC(F)(F)F)nc3)c2cc1OC [Compound 18]")
"< 500 nM"
>>> reported("COc1cc2nccc(Oc3ccc(NC(=O)c4nn(C5CC5)cc4OCC4CNC4)nc3)c2cc1OC [Compound 144]")
"≥ 1000 nM"
>>> reported("COc1cc2nccc(Oc3ccc(NC(=O)c4nn(C5CCCC5)cc4OCC(F)(F)F)nc3)c2cc1OC [Compound 40]")
"< 500 nM"
>>> reported("COc1cc2nccc(Oc3ccc(NC(=O)c4nn(CCOC5CC5)cc4OCC(F)(F)F)nn3)c2cc1OC [Compound 120]")
"500 to 1000 nM"
>>> reported("CCCn1cc(OCCOC)c(C(=O)Nc2ccc(Oc3ccnc4cc(OC)c(OC)cc34)cn2)n1 [Compound 105]")
"< 500 nM"
>>> reported("COc1cc2nccc(Oc3ccc(NC(=O)c4nn(CCO)cc4OCC(F)(F)F)cc3F)c2cc1OC [Compound 51]")
"< 500 nM"
>>> reported("CNCCn1cc(OCC(F)(F)F)c(C(=O)Nc2ccc(Oc3ccnc4cc(OC)c(OC)cc34)cn2)n1 [Compound 11]")
"500 to 1000 nM"
>>> reported("COc1cc2nccc(Oc3ccc(NC(=O)c4nn(C5CC5)cc4OCC4CCC4)nn3)c2cc1OC [Compound 149]")
"≥ 1000 nM"
>>> reported("COc1cc2nccc(Oc3ccc(NC(=O)c4nn(C5CCOC5)cc4OCC(F)(F)F)nn3)c2cc1OC (centres unmarked) [Compound 128]")
"< 500 nM"
>>> reported("COc1cc2nccc(Oc3ccc(NC(=O)c4nn(C5CC5)cc4OCCF)nn3)c2cc1OC [Compound 113]")
"< 500 nM"
